Cited source for all entries: the Biogen ADME set (Fang et al. 2023)

ASSAY READOUT: intrinsic clearance, rat liver microsomes (mL/min/kg)

Some solved cases for reference:
Request: Please give the measured intrinsic clearance, rat liver microsomes for this compound: O=C(C1CCCCC1)N1CCC[C@H]1Cn1nnc(-c2cccs2)n1
Result: 5120

Request: Ok, now Clc1snnc1CN1CCCN(c2nc3ccccc3[nH]2)CC1
Result: 1440

Request: Then this compound: O=C1CCCN1C(=O)COc1cccc(-c2nnco2)c1
Result: 27.5

Request: And for CCC(=O)Nc1sc2c(c1C#N)CCC2 ?
Result: 381

Request: Cool, now CN(C)c1cncc(-c2ccc(S(=O)(=O)N(C)C)cc2)n1
Result: 2430

Request: Moving on to O=C(C1CCCN(Cc2cc3c(cc2O)OCO3)C1)N1CCOCC1 (centres undefined)
Result: 52.6

Request: And the next one, COc1ccc(CCn2c(C)c3c(=O)n(-c4nc5ccccc5s4)[nH]c3cc2=O)cc1 ?
Result: 892

Request: // next record CN(C)c1nc(CN2CCOCC2)nc2scc(-c3cccs3)c12
Result: 1790

Request: What do we get for CC(C)N(C(=O)Cn1cccc2cc(C(F)F)nc1-2)C(C)C ?
Result: 436

Request: One more compound: COc1ccc2c(c1)C(=O)N(c1ccc(C)cc1)C(=O)C2
Result: 368

(I) Cc1nccc(N(C)Cc2nc(-c3cccnc3)no2)n1
(II) O=C(Cc1ccc2ccccc2c1)NCCc1nc2ccccc2[nH]1
(III) COc1ccc2c(c1)CN(C(=O)c1cc(C3CC3)[nH]n1)CC2
(IV) O=C(Nc1ccc(C2CCCCC2)cc1)c1ccc(S(=O)(=O)NCc2cccnc2)cc1
Request: Hey, quick one: sort these by intrinsic clearance, rat liver microsomes, largest value first please. Submit the labels in the order that the ranking request calls for.
Result: III, II, IV, I

(1) COc1ccncc1NCc1ccc2c(c1)OCCO2
(2) CS(=O)(=O)CCNC(=O)N1CC2(CCCC2)c2ccccc21
(3) O=C(Nc1ncccc1OC(F)F)C1CCCCC1
Request: Task field, ranking: reported intrinsic clearance, rat liver microsomes, descending order. # answer = labels listed in requested order
Result: 3, 1, 2

* * *

ASSAY READOUT: intrinsic clearance, rat liver microsomes (mL/min/kg)

Reference set, count: 6
Request: I would be grateful if you could share the reported intrinsic clearance, rat liver microsomes for CN(C)C(=O)CCNc1ccnc2ccc(Cl)cc12 .
Result: 73.1

Request: Try this compound next: O=C(OCC1CCSCC1)c1cccc(-n2cccn2)n1
Result: 2200

Request: Consider next the compound CCc1nnc(NC(=O)Cc2cccc(F)c2)s1 in the same way.
Result: 76.3

Request: Then what about the compound O=C(Nc1ccn(Cc2ccccn2)n1)c1c(F)cccc1I ?
Result: 132

Request: Then this compound: NC(=O)C1(CCCc2ccccn2)CCNCC1
Result: 84.3

Request: Can you check COc1cccc(CN2CCN(C(=O)Cc3ccc(C)cc3)[C@@H](C)C2)c1 next?
Result: 988

(A) O=C(Nc1ccccn1)c1cccc2ccccc12
(B) CCc1ccc2nc(C)cc(C(=O)N3CC(c4cccnc4)C3)c2c1
Request: Between A and B , which one shows the larger intrinsic clearance, rat liver microsomes value? Give the label under which the chosen entry appears.
Result: B

(a) CCN1C(=O)CC[C@H](C(=O)N2CCc3cc(F)cc(C)c3C2)[C@H]1c1ccncc1
(b) O=C(O)c1ccc(N2CCCC2)c(F)c1
Request: # returns the entry with the larger intrinsic clearance, rat liver microsomes; inputs a and b Please indicate the selected item by its label.
Result: a

(a) COc1ccc(C(=O)Nc2ccc3oc(C)nc3c2)c(OC)c1
(b) COc1cccc(C(=O)N(C)CC(F)(F)F)c1OCCCN
Request: Between these two entries, a and b , state which has the higher intrinsic clearance, rat liver microsomes. Respond using the label that marks the chosen record.
Result: a

(I) Cc1cccc2ncn(CCc3ncc[nH]3)c(=O)c12
(II) C#CCNC(=O)Cc1coc(-c2ccccc2)n1
Request: Could you please tell me which of these two has the higher intrinsic clearance, rat liver microsomes: I or II ? # respond with the chosen item's label
Result: I
(I: 2240 mL/min/kg, II: 142 mL/min/kg)

(1) Cc1nc(-c2ccncc2)cc(N2CCC(CO)CC2)n1
(2) Cc1ncc(-c2ccccn2)c(CCNC(=O)C2CCCC2)n1
(3) c1ccc(Nc2nc(N3CCNCC3)nc(N3CCOCC3)n2)cc1
(4) Cn1nccc1C(=O)NCCc1cc2nc(-c3cccs3)ccn2n1
Request: rank_up(items): orders items by reported intrinsic clearance, rat liver microsomes in ascending numerical order. Form entry: ranked labels (order as requested).
Result: 1, 3, 2, 4
(1: 36.9 mL/min/kg, 3: 57 mL/min/kg, 2: 90.7 mL/min/kg, 4: 565 mL/min/kg)

(A) Cc1noc(NCc2ccc(F)cc2C)n1
(B) N#Cc1cc(Oc2ccc3c(c2)CCC3)ncn1
(C) CCN(C(=O)c1cc(NC(C)=O)ccc1F)C1CCCC1
(D) COc1cccc(Cn2cnc3c(c2=O)COCC3)c1Cl
Request: Hello, I need these entries ordered by intrinsic clearance, rat liver microsomes, highest reading first. Thanks! Please, when replying, give the labels in the order that was requested.
Result: C, B, D, A
